- assayed_target: human DP1 receptor (Homo sapiens)
- Construct: tissue Biological Specialty Corporation; host or cells: human platelet membranes
- Sequence (Q13258 whole entry): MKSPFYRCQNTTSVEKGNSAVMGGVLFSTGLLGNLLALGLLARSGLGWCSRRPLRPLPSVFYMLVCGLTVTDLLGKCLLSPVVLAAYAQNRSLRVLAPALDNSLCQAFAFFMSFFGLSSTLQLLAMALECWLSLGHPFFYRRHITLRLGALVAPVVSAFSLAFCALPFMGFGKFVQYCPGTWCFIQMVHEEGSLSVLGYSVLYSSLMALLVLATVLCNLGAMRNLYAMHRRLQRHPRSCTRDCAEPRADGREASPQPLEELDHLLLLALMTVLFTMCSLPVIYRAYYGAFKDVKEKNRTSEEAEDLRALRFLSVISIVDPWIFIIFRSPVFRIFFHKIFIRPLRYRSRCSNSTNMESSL
- test_method_notes: DP1 radioligand binding assay ([3H]BWA868C, platelet membranes)
- settings: [3H]BWA868C binding, human platelet membranes; read-out: hDP1
- Method: The ability of a compound to bind to the human DPI receptor was evaluated via a radioligand membrane binding assay using the DP1 selective synthetic ligand [^311]BWA868C. […] Scintillant is then added to the plates and the radioactivity retained on the filters is determined on a Packard TopCount (Perkin Elmer). Specific binding is determined as total radioactive binding minus non-specific binding in the presence of 10 μM BW A868C. […]

# compound, assayed_target, IC50
data = [
    ("CCN(Cc1cc(C(F)(F)F)ccc1-c1ccc(OC)c(CC(=O)O)c1)C(=O)OCc1ccccc1", "human DP1 receptor (Homo sapiens)", "1000 to 30000 nM"),
    ("COc1ccc(CC(=O)O)cc1-c1ccc(C(F)(F)F)cc1CN(C(C)=O)[C@@H]1CCc2ccccc21", "human DP1 receptor (Homo sapiens)", "< 300 nM"),
    ("CCN(Cc1cc(C(F)(F)F)ccc1-c1cc(F)cc(CC(=O)O)c1)C(=O)OCc1ccccc1", "human DP1 receptor (Homo sapiens)", "300 to 1000 nM"),
    ("CCN(Cc1cc(C(F)(F)F)ccc1-c1cc(CC(=O)O)ccc1F)C(C)=O", "human DP1 receptor (Homo sapiens)", "1000 to 30000 nM"),
    ("CCN(Cc1ccc(C(F)(F)F)cc1-c1cc(CC(=O)O)ccc1OC)C(=O)OCc1ccc(F)cc1", "human DP1 receptor (Homo sapiens)", "300 to 1000 nM"),
    ("CCN(Cc1cc(C(F)(F)F)ccc1-c1cc(CC(=O)O)ccc1OC)C(=O)NCc1ccc(Cl)c(Cl)c1", "human DP1 receptor (Homo sapiens)", "1000 to 30000 nM"),
    ("CCN(Cc1cc(C(F)(F)F)ccc1-c1cc(CC(N)=O)ccc1OC)C(=O)C1CC1", "human DP1 receptor (Homo sapiens)", "1000 to 30000 nM"),
]
